Reference for the values: patent US20260265238A1

Target: SMARCA4-HiBiT HeLa cells (protein which is expressed from the SMARCA4 gene) (Homo sapiens)
Construct: protein which is expressed from the SMARCA2 and SMARCA4 genes; host or cells: HeLa (SMARCA4-HiBiT engineered line)
Sequence (P51532 whole entry): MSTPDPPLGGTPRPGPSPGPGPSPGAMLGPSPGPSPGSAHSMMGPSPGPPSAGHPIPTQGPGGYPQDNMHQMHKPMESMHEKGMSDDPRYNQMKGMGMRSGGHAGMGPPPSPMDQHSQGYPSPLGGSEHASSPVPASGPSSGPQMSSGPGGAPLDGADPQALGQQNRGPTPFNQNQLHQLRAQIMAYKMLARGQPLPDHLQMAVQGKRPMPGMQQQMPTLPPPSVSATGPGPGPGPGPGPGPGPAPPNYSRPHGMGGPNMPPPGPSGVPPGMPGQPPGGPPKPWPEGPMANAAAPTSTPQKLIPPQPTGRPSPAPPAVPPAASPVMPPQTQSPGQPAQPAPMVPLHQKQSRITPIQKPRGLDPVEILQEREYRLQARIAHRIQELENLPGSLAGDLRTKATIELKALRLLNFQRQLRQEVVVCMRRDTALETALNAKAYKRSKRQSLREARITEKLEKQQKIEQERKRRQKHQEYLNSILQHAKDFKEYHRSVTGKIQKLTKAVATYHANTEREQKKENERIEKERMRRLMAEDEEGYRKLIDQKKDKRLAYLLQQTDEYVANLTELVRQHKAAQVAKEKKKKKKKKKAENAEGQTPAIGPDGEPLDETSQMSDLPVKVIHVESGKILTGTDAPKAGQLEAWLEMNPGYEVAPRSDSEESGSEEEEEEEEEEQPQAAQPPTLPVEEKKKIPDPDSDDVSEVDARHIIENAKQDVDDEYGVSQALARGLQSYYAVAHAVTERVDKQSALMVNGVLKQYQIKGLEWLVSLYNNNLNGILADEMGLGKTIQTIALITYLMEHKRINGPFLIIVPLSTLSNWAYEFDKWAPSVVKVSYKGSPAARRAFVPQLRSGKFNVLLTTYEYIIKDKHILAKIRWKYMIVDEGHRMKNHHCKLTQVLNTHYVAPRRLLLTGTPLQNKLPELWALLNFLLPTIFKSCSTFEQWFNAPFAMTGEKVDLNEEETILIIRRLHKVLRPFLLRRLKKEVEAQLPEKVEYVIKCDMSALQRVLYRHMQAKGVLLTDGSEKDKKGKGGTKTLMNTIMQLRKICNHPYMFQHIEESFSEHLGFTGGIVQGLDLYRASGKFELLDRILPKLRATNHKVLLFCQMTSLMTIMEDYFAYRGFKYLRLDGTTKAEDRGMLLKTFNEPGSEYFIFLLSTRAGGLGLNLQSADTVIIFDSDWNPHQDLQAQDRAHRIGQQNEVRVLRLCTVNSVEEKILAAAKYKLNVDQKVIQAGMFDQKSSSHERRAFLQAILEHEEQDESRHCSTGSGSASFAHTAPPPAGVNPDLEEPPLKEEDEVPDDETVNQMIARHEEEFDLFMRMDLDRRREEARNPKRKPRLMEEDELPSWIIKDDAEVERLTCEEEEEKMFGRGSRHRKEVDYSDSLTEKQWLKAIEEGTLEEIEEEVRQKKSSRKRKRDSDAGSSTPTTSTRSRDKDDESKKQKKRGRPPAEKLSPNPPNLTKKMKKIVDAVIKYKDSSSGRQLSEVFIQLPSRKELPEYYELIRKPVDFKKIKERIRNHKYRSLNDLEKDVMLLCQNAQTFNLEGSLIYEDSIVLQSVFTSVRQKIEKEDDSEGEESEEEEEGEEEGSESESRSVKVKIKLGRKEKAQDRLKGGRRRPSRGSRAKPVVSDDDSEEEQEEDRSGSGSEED
Assay: SMARCA4 degradation assay (HiBiT-fusion HeLa cell line, 24 h, luminescence)
Format: cell-based
Conditions: @ 1 μM
assay.endpoint: inhibition at 1 µM

Recorded inhibition at 1 µM, per entry:
Cc1nn2ccn(CC#Cc3nccc(N4C[C@H]5C[C@@H]4CN5c4cc(-c5ccccc5O)nnc4N)n3)c(=O)c2c1C [Compound P-286] = 30 to 70%
Nc1nnc(-c2ccccc2O)cc1N1CCN(c2ccnc(C#CCNC(=O)c3cnc4ccccc4n3)n2)CC1 [Compound P-72] = 30 to 70%
C[C@@H]1CCN(c2cc(-c3ccccc3O)nnc2N)CCN1c1ccnc(C#CCn2ccnc2)n1 [Compound P-298] = 30 to 70%

Query string: Name the recorded inhibition at 1 µM for Nc1nnc(-c2ccccc2O)cc1N1C2CCC1CN(c1ccnc(C#CCn3ccnc3)n1)C2 [Compound P-284] .
Result string: < 30%

Query string: Name the recorded inhibition at 1 µM for C[C@@H]1CCN(c2cc(-c3ccccc3O)nnc2N)CCN1c1ccnc(C#CCN2CCC(C#N)C2)n1 (stereo partly shown) [Compound P-245] .
Result string: 30 to 70%

Query string: Name the recorded inhibition at 1 µM for CC(C)(C)OC(=O)N1Cc2cn(CC#Cc3nccc(N4CCCN(c5cc(-c6ccccc6O)nnc5N)CC4)n3)nc2C1 [Compound P-105] .
Result string: > 70%

Query string: Name the recorded inhibition at 1 µM for Nc1nnc(-c2ccccc2O)cc1N1CCCN(c2ccnc(C#CCN3CCOCC3)n2)CC1 [Compound P-136] .
Result string: 30 to 70%
